pIC50 listing for selected compounds.
Target of assay: UniProt J9SQF3
Test: TRPM3 ion channel driven Ca2+ uptake, Fluo-4 AM assay, PS-stimulated (mTRPM3)
Condition summary: TRPM3 overexpressing flip-in HEK293 cells stimulated with Pregnenolone sulfate (PS) 50 μM, activity ranges A, B, C
pIC50: −log10 of the molar value.

INSERT INTO measurements (compound, observed_result) VALUES
  ('Cc1oc2ccc(OC(C)c3ccccc3)cc2c1C(=O)NC1(CO)CCOCC1 (single isomer, unassigned) [Cpd 308-En 2]', '> 6.00'),
  ('Cc1ccc(COc2ccc3oc(C)c(C(=O)N[C@H]4CCNC4)c3c2)cc1 [Cpd 085]', '> 6.00'),
  ('Cc1oc2ccc(OCc3ccccc3)cc2c1C(=O)N[C@H]1CCNC1 [Cpd 049]', '> 6.00'),
  ('Cc1oc2ccc(OCc3ccccc3F)cc2c1C(=O)NC1COCC1(F)F (single isomer, unassigned) [Cpd 331-En 1]', '< 4.70');

// returns reported pIC50 for input Cc1oc2ccc(OCc3ccccc3)cc2c1C(=O)NC1CCNCC1 [Cpd 074]
> 6.00

For the compound Cc1oc2ccc(OCc3ccccc3)cc2c1C(=O)N1CCN(c2ccccn2)CC1 [Cpd 214] , what pIC50 is on record?
4.70 to 6.00

// query pIC50 value for entry Cc1oc2ccc(OCc3ccccc3)cc2c1C(=O)NCc1cnccn1 [Cpd 102]
4.70 to 6.00

Sample Cc1oc2ccc(OCc3ccccc3)cc2c1C(=O)NC1CCN(C)C(=O)C1 (centres unmarked) [Cpd 146] — what was its pIC50?
4.70 to 6.00

====

Target of assay: mouse TRPM3α2 (mTRPM3) ion channel (Mus musculus, UniProt J9SQF3)
Construct: expressed in transfected cells; host or cells: flip-in HEK293
Sequence (J9SQF3 1-1709 isoform J9SQF3-12): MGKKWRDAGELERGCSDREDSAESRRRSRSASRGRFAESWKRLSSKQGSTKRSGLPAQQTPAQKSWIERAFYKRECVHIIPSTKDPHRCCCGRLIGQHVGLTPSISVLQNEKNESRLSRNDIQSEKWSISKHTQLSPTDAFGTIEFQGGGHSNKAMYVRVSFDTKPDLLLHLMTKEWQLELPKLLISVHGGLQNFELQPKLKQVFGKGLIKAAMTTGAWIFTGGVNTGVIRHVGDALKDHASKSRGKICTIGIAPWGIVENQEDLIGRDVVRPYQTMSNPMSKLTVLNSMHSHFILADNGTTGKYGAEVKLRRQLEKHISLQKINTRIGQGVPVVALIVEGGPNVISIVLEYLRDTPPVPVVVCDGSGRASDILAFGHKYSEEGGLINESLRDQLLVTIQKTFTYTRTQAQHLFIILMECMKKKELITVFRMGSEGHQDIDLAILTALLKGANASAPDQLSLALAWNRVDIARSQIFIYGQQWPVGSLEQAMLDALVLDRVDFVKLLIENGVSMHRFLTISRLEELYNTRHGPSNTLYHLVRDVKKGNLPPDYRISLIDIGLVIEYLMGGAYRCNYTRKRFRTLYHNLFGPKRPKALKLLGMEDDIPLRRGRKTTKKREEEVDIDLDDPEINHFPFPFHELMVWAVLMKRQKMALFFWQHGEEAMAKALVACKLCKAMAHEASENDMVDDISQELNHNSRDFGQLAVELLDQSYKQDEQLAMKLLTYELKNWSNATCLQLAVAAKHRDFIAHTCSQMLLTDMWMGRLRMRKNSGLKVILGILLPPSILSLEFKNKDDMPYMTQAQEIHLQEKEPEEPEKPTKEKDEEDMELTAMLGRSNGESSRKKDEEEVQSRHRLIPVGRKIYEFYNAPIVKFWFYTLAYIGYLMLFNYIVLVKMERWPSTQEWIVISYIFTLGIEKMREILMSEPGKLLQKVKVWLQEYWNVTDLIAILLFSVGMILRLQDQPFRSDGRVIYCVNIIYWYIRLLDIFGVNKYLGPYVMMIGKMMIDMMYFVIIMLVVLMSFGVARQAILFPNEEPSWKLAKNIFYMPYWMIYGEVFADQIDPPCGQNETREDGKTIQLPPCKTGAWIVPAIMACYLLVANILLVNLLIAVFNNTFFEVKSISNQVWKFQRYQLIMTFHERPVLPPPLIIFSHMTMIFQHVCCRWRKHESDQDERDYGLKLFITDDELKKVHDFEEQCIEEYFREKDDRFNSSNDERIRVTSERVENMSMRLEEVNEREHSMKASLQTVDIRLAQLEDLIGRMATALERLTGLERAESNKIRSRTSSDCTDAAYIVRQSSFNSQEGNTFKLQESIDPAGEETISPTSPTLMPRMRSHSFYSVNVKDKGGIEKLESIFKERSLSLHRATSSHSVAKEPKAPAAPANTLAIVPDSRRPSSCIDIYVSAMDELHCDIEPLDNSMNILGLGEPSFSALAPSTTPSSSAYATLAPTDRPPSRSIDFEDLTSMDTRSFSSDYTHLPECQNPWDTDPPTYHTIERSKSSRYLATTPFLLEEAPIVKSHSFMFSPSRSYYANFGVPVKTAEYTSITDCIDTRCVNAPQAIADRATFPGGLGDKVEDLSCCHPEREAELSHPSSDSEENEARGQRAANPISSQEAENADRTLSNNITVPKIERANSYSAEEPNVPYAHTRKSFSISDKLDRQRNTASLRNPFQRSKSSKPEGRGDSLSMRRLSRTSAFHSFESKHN
Test: TRPM3 ion channel driven Ca2+ uptake, Fluo-4 AM assay, PS-stimulated (mTRPM3)
Format: cell-based
Condition summary: TRPM3 overexpressing flip-in HEK293 cells stimulated with Pregnenolone sulfate (PS) 50 μM, activity ranges A, B, C
Readout kind: IC50

INSERT INTO measurements (molecule, observed_result) VALUES
  ('Cc1oc2ccc(OCc3ccccc3)cc2c1C(=O)NC1CCC(O)CC1 (stereo not drawn)', '< 1 µM'),
  ('Cc1oc2ccc(OCc3ccccc3)cc2c1C(=O)NCC1CCC(=O)N1 (stereo not drawn)', '< 1 µM');

Please turn your attention to the following entry.
Which IC50 is reported with mouse TRPM3α2 (mTRPM3) ion channel (Mus musculus, UniProt J9SQF3) for this entry: Cc1oc2ccc(OCc3ccccc3C(F)(F)F)cc2c1C(=O)NC1CCN(C)CC1 ?
1 to 20 µM

====

Entries and their IC50 values follow.
Target of assay: mouse TRPM3α2 (mTRPM3) ion channel (Mus musculus, UniProt J9SQF3)
Test: TRPM3 ion channel driven Ca2+ uptake, Fluo-4 AM assay, PS-stimulated (mTRPM3)
Condition summary: TRPM3 overexpressing flip-in HEK293 cells stimulated with Pregnenolone sulfate (PS) 50 μM, activity ranges A, B, C

INSERT INTO assay_data (molecule, observed_result) VALUES
  ('Cc1cc(CNC(=O)c2c(C)oc3ccc(OCc4ccccc4)cc23)no1', '< 1000 nM');

Turning to the following molecule.
// query IC50 value for entry Cc1cccc(COc2ccc3oc(C)c(C(=O)O)c3c2)c1
< 1000 nM

====

Target of assay: UniProt J9SQF3
Test: TRPM3 ion channel driven Ca2+ uptake, Fluo-4 AM assay, PS-stimulated (mTRPM3)
Condition summary: TRPM3 overexpressing flip-in HEK293 cells stimulated with Pregnenolone sulfate (PS) 50 μM, activity ranges A, B, C
Reported IC50 by item:

Use these answered entries as a reference point.
INSERT INTO results (compound, readout_kind, observed_result) VALUES
  ('Cc1oc2ccc(OCc3ccccc3F)cc2c1C(=O)NC(CO)C(N)=O (single isomer, unassigned) [Cpd 314-En 1]', 'IC50', '< 1000 nM'),
  ('Cc1oc2ccc(OCc3ccccc3)cc2c1C(=O)N[C@@H]1CCNC1=O', 'IC50', '< 1000 nM'),
  ('Cc1oc2c(Cl)cc(OCc3ccccc3)cc2c1C(=O)NC1CNCC1(F)F (single isomer, unassigned) [Cpd 304-En 1]', 'IC50', '1000 to 20000 nM');

Note: attention shifts to another entry.
# lookup: IC50 of Cc1oc2ccc(OCc3ccccc3)cc2c1C(=O)N[C@@H]1C[C@H]2CCC[C@@H](C1)N2
< 1000 nM

====

Target of assay: mouse TRPM3α2 (mTRPM3) ion channel (Mus musculus, UniProt J9SQF3)
Test: TRPM3 ion channel driven Ca2+ uptake, Fluo-4 AM assay, PS-stimulated (mTRPM3)
Condition summary: TRPM3 overexpressing flip-in HEK293 cells stimulated with Pregnenolone sulfate (PS) 50 μM, activity ranges A, B, C
Readout kind: IC50

// solved cases for IC50 follow
INSERT INTO results (compound, readout_kind, observed_result) VALUES
  ('Cc1oc2ccc(OCc3ccccc3)cc2c1C(=O)NC1CNC(=O)C1 (stereo not drawn) [Cpd 068]', 'IC50', '1000 to 20000 nM'),
  ('Cc1oc2ccc(OCc3ccccc3)cc2c1C(=O)N1CCC(C)CC1 [Cpd 067]', 'IC50', '1000 to 20000 nM'),
  ('Cc1oc2ccc(OCc3ccccc3F)cc2c1C(=O)O [Cpd 008]', 'IC50', '< 1000 nM'),
  ('Cc1oc2ccc(OCc3ccccc3)cc2c1C(=O)N[C@H]1CC[C@H](N)CC1 [Cpd 120]', 'IC50', '1000 to 20000 nM');

I'm curious: which IC50 was measured for Cc1oc2ccc(OCc3ccccc3)cc2c1C(=O)NC1CN(C(=O)OC(C)(C)C)CCC1F (single isomer, unassigned) [Cpd 255-Dia 1] tested on mouse TRPM3α2 (mTRPM3) ion channel (Mus musculus, UniProt J9SQF3)?
< 1000 nM

GET /values?readout=IC50&system=mouse TRPM3α2 (mTRPM3) ion channel (Mus musculus, UniProt J9SQF3)&item= Cc1ccc(COc2ccc3oc(C)c(C(=O)NC4CCN(C)CC4)c3c2)cc1 [Cpd 154]
1000 to 20000 nM

Give recorded IC50 with mouse TRPM3α2 (mTRPM3) ion channel (Mus musculus, UniProt J9SQF3) for the following compound: Cc1oc2ccc(OCc3ccccc3F)cc2c1C(=O)NC1(CO)COC1 [Cpd 310]
< 1000 nM

So what IC50 did Cc1oc2ccc(OCc3ccccc3)cc2c1C(=O)N[C@@H]1CCN(C(=O)OC(C)(C)C)C1 [Cpd 238] get with mouse TRPM3α2 (mTRPM3) ion channel (Mus musculus, UniProt J9SQF3)?
> 20000 nM

Could you share what IC50 was measured for Cc1oc2ccc(OCc3ccccc3)cc2c1C(=O)N(C)C1CCN(C)CC1 [Cpd 156] , tested on mouse TRPM3α2 (mTRPM3) ion channel (Mus musculus, UniProt J9SQF3)?
1000 to 20000 nM

====

Collected IC50 values appear next to each entry.
Target of assay: UniProt J9SQF3
Test: TRPM3 ion channel driven Ca2+ uptake, Fluo-4 AM assay, PS-stimulated (mTRPM3)
Condition summary: TRPM3 overexpressing flip-in HEK293 cells stimulated with Pregnenolone sulfate (PS) 50 μM, activity ranges A, B, C

Below are worked cases with known answers.
INSERT INTO results (compound, readout_kind, observed_result) VALUES
  ('COc1ccccc1COc1ccc2oc(C)c(C(=O)NS(=O)(=O)C3CC3)c2c1 [Cpd 199]', 'IC50', '< 1000 nM'),
  ('Cc1ccc(COc2ccc3oc(C)c(C(=O)O)c3c2)cc1 [Cpd 006]', 'IC50', '1000 to 20000 nM'),
  ('Cc1oc2ccc(OCc3ccccc3Cl)cc2c1C(=O)N[C@@H](CO)C(N)=O [Cpd 338]', 'IC50', '< 1000 nM'),
  ('Cc1oc2ccc(OCc3ccccc3)cc2c1C(=O)NC1CC2CCC(C1)N2C (stereo not drawn) [Cpd 181]', 'IC50', '< 1000 nM'),
  ('Cc1oc2ccc(OCc3ccccc3F)cc2c1C(=O)NS(=O)(=O)C1CC1 [Cpd 175]', 'IC50', '< 1000 nM'),
  ('Cc1oc2ccc(OCc3ccccc3)cc2c1C(=O)NC1(C(=O)O)CCOCC1 [Cpd 193]', 'IC50', '1000 to 20000 nM'),
  ('Cc1oc2ccc(OCc3cccc(CN)c3)cc2c1C(=O)NC1CCNC1=O (stereo not drawn) [Cpd 157]', 'IC50', '> 20000 nM'),
  ('Cc1oc2ccc(OCc3ccccc3S(C)(=O)=O)cc2c1C(=O)NC1CCNCC1(F)F (single isomer, unassigned) [Cpd 333-En 2]', 'IC50', '< 1000 nM'),
  ('Cc1oc2ccc(OCc3ccc(F)cc3F)cc2c1C(=O)N[C@@H](CO)C(N)=O [Cpd 340]', 'IC50', '< 1000 nM'),
  ('Cc1oc2ccc(OCc3ccccc3)cc2c1C(=O)N[C@@H]1CCCNC1=O [Cpd 107]', 'IC50', '< 1000 nM');

Which measured IC50 belongs to Cc1oc2ccc(OCc3ccccc3)cc2c1C(=O)NCC(O)c1cccnc1 (stereo not drawn) [Cpd 174] , tested on UniProt J9SQF3?
1000 to 20000 nM

# query: IC50 | item Cc1oc2ccc(OCc3ccccc3)cc2c1C(=O)NC[C@H]1CCCO1 [Cpd 089] | system: UniProt J9SQF3
1000 to 20000 nM

Reported IC50 for UniProt J9SQF3, given COc1cccc(COc2ccc3oc(C)c(C(=O)O)c3c2)c1 [Cpd 012] ?
< 1000 nM

# query: IC50 | item Cc1oc2ccc(OCc3c(F)cccc3F)cc2c1C(=O)NC1CCNC1=O (stereo not drawn) [Cpd 172] | system: UniProt J9SQF3
< 1000 nM

Under UniProt J9SQF3: IC50 value of Cc1oc2ccc(OCc3ccccc3)cc2c1C(=O)N[C@@H]1C[C@H]2COC[C@@H](C1)N2C(=O)OC(C)(C)C [Cpd 265] ?
> 20000 nM

Can you look up IC50 on UniProt J9SQF3 for Cc1oc2ccc(OCc3ccccc3)cc2c1C(=O)NCC(O)CO (stereo not drawn) [Cpd 057] ?
< 1000 nM

Please tell me: IC50 of Cc1oc2ccc(OCc3ccccc3C(F)(F)F)cc2c1C(=O)O [Cpd 024] , system UniProt J9SQF3?
< 1000 nM

Request: IC50, test system UniProt J9SQF3, entry Cc1oc2ccc(OCc3ccccc3)cc2c1C(=O)N[C@H]1C[C@H]2CC[C@@H](C1)N2C [Cpd 183]
< 1000 nM
